Numbers sourced from ChEMBL document CHEMBL2440005.

# experiment-notes: Volume of distribution at steady state in mouse at 2 mg/kg, iv
# Type: ADME, organism-based
# Parameters: dose 2 mg/kg, route intravenous
# experimental-parameters: in vivo, read-out: Vdss

{"smiles-code": "O=C(Nc1ccc2c(c1)B(O)OC2)c1c(C(F)(F)F)ccc(Cl)c1F", "Vd": "0.41 L/kg"}

* * *

# experiment-notes: Oral bioavailability in mouse at 4 mg/kg
# Format: ADME, organism-based
# experimental-parameters: in vivo

{"smiles-code": "O=C(Nc1ccc2c(c1)B(O)OC2)c1c(C(F)(F)F)ccc(Cl)c1F", "bioavailability (%)": 71}

* * *

# experiment-notes: Terminal half life in mouse at 2 mg/kg, iv
# Type: ADME, organism-based
# Set-up: dose 2 mg/kg, route intravenous
# experimental-parameters: in vivo, read-out: beta t1/2 (converted)

{"smiles-code": "O=C(Nc1ccc2c(c1)B(O)OC2)c1c(C(F)(F)F)ccc(Cl)c1F", "unit-symbol": "h", "half-life": 7.85}
